# Test summary: chemical genetic growth profiling, strain panel (AID 1159580);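 note: tested at 20 µM; growth read once vehicle control cultures reached saturation at 30 °C; 1 = growth at the plate median or of vehicle wells; lower values mean less growth of the strain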
# Experimental parameters: S. cerevisiae deletion strains, growth OD, locus YLR342W, strain FKS1 (second series), hits give low values
Out of some 5,500 compounds screened, about 2,000 (36%) were called active. Inconclusive results (about 18%) are left out. The list shows a part of the results.

# Compound, normalized growth
measured = [
    ("Oc1cccc(O)c1", 0.995),
    ("CN(C)CCCN1c2ccccc2CCc2ccc(Cl)cc21", 0.615),
    ("CCCc1c(OCCCCc2nn[nH]n2)ccc(C(C)=O)c1O", 0.975),
    ("CCN(CC)CCOC(=O)C1(C2CCCCC2)CCCCC1", 0.905),
    ("CN(C)CCCN1c2ccccc2Sc2ccccc21", 0.99),
    ("CCN(CC)CCOC(=O)C(c1ccccc1)C1CCCCC1 (configuration not stated)", 1.02),
    ("CC(C)CC1NC(=O)CNC1=O (configuration not stated)", 1.05),
]

---

Reported normalized growth values for a set of compounds
# Test summary: chemical genetic growth profiling, strain panel (AID 1159580);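 note: tested at 20 µM; growth read once vehicle control cultures reached saturation at 30 °C; 1 = growth at the plate median or of vehicle wells; lower values mean less growth of the strain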
# Experimental parameters: S. cerevisiae deletion strains, growth OD, locus YBR229C, strain ROT2, hits give low values
Screen size: about 5,500 compounds; about 2,000 (36%) were called active. Not shown: some 18% with an inconclusive outcome. Some of the results follow.
Property: normalized growth

# Compound, Property, Readout number
data = [
    ("Cn1c(CSc2ccccc2)n[nH]c1=S", "normalized growth", 0.99),
    ("O=C1NC(O)=NC1(c1ccccc1)c1ccccc1", "normalized growth", 1),
    ("CC(CCC(=O)O)[C@H]1CCC2C3CC[C@@H]4CC(=O)CC[C@]4(C)C3C=C[C@@]21C (some centres undefined)", "normalized growth", 1.03),
    ("CCC(C)C(=O)OC1[C@@H]2CC3=C4CC(=O)O[C@@H](c5ccoc5)[C@]4(C)CCC3[C@@](C)(C2=O)[C@@H](CC(=O)OC)C1(C)C (some centres undefined)", "normalized growth", 0.999),
    ("CC(=O)O[C@H]1CC[C@@]2(C)C(=CC(=O)C3C4CCC(C(C)CCCC(C)C)[C@@]4(C)CCC32)C1 (some centres undefined)", "normalized growth", 1),
    ("C[n+]1ccccc1/C=N/O", "normalized growth", 1.01),
    ("N#CC(c1ccccc1)N1CCCCC1 (centres undefined)", "normalized growth", 0.995),
    ("O=C(O)c1cc(O)c2c(c1)[C@@H]([C@H]1c3cc(C(=O)O)cc(O)c3C(=O)c3c(O[C@H]4O[C@H](CO)[C@@H](O)[C@H](O)[C@H]4O)cccc31)c1cccc(O[C@H]3O[C@H](CO)[C@@H](O)[C@H](O)[C@H]3O)c1C2=O", "normalized growth", 1.01),
    ("C[C@H](CCC(=O)O)[C@H]1CCC2C3C(=O)CC4CC(=O)CC[C@]4(C)C3CC(=O)[C@@]21C (some centres undefined)", "normalized growth", 1.01),
]

---

Reported normalized growth values for a set of molecules
# Test summary: chemical genetic growth profiling, strain panel (AID 1159580);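 note: tested at 20 µM; growth read once vehicle control cultures reached saturation at 30 °C; 1 = growth at the plate median or of vehicle wells; lower values mean less growth of the strain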
# Experimental parameters: S. cerevisiae deletion strains, growth OD, locus YJL115W, strain asf1, hits give low values
The whole screen tested about 5,500 compounds, of which about 2,000 (36%) were called active. Inconclusive results (about 18%) are left out. Some of the results follow.

# Molecule, normalized growth
records = [
    ("CNNC", "0.994 (inactive)"),
    ("CN1CCN(C(=O)OC2c3nccnc3C(=O)N2c2ccc(Cl)cn2)CC1 (configuration not stated)", "0.995 (inactive)"),
    ("CS(=O)(=O)c1ccc([C@@H](O)[C@@H](CO)NC(=O)C(Cl)Cl)cc1", "1.04 (inactive)"),
    ("NC(Cn1ccc(=O)c(O)c1)C(=O)O (configuration not stated)", "1.02 (inactive)"),
    ("CC(N=C(NC#N)Nc1ccncc1)C(C)(C)C (configuration not stated)", "0.971 (inactive)"),
    ("C[n+]1ccccc1/C=N/O", "1.01 (inactive)"),
    ("CC1(C)CC2C1CC[C@]1(CBr)CCC3C(CC(=O)O)C(=O)O[C@@]32C1 (some centres not stated)", "1.02 (inactive)"),
]

---

# Test summary: chemical genetic growth profiling, strain panel (AID 1159580);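 note: tested at 20 µM; growth read once vehicle control cultures reached saturation at 30 °C; 1 = growth at the plate median or of vehicle wells; lower values mean less growth of the strain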
# Experimental parameters: S. cerevisiae deletion strains, growth OD, locus YNL322C, strain KRE1 (second series), hits give low values
Hit rate of the full screen: of about 5,500 compounds, about 2,000 (36%) were called active. Roughly 18% stayed inconclusive and do not appear here. The list shows a part of the results.
Reported normalized growth values for a set of compounds

# Compound, normalized growth
data = [
    ("CS(=O)(=O)Nc1ccc([N+](=O)[O-])cc1Oc1ccccc1", 0.994),
    ("C[n+]1ccccc1/C=N/O", 0.991),
    ("CC1(C)CC2C1CC[C@]1(CBr)CCC3C(CC(=O)O)C(=O)O[C@@]32C1 (some centres undefined)", 1.01),
    ("COc1cc(C/C=C/c2ccccc2)c(OC)cc1O", 0.969),
    ("Oc1cccc(O)c1", 0.967),
    ("CC(C)c1ccc2c(c1)CCC1[C@](C)(CN)CCC[C@]21C (some centres undefined)", 1.01),
    ("CC(=O)Oc1ccc(O)cc1", 0.993),
    ("CC(C)CCCC(C)C1CCC2C3CC(=O)[C@H]4C[C@@H](O)CC[C@]4(C)C3CC[C@]12C (some centres undefined)", 1.01),
    ("CC(CCC(=O)O)[C@H]1CCC2C3CC[C@@H]4C[C@H](O)CC[C@]4(C)C3C=C[C@@]21C (some centres undefined)", 1.04),
    ("CC12CCC(=O)C=C1CCC1C2[C@@H](O)CC2(C)C1CC[C@]2(O)C(=O)COP(=O)(O)O (some centres undefined)", 0.999),
    ("CC1=CC(=O)c2ccccc2C1=O", 0.999),
    ("C[C@H](CCC(=O)O)[C@H]1CCC2C3C(=O)CC4CC(=O)CC[C@]4(C)C3CC(=O)[C@@]21C (some centres undefined)", 0.975),
    ("CN(C)CCCN1c2ccccc2CCc2ccccc21", 0.997),
    ("NC(Cn1ccc(=O)c(O)c1)C(=O)O (centres undefined)", 1.02),
    ("CC12CCC3C(CC3(C)C)C(C)(CCC1=O)O2 (centres undefined)", 0.985),
    ("CN(C)C(=O)Oc1cccc([N+](C)(C)C)c1", 0.989),
    ("CC(C)C[C@@H](CN)CC(=O)O", 1.02),
    ("CC(C)CCCC(C)[C@H]1CCC2C3CC=C4CC(=O)CC[C@]4(C)C3CC[C@@]21C (some centres undefined)", 0.99),
    ("CCOC(=O)[C@H](CCc1ccccc1)N[C@@H](C)C(=O)N1CCC[C@H]1C(=O)O", 0.963),
    ("CN(C)[C@@H]1C(=O)C(C(N)=O)=C(O)[C@@]2(O)C(=O)C3=C(O)c4c(O)cccc4[C@@](C)(O)[C@H]3[C@H](O)[C@@H]12", 1.01),
    ("C=C1c2cccc(O)c2C(O)=C2C(=O)[C@]3(O)C(O)=C(C(N)=O)C(=O)[C@@H](N(C)C)[C@@H]3[C@@H](O)[C@H]12", 1.01),
    ("CC(C)CCCC(C)[C@H]1CCC2C3CC=C4C[C@@H](O)CC[C@]4(C)C3CC[C@@]21C (some centres undefined)", 0.964),
    ("CC(CCC(=O)O)[C@H]1CCC2C3C(=O)C[C@@H]4CC(=O)CC[C@]4(C)C3CC(=O)[C@@]21C (some centres undefined)", 0.992),
    ("CC1(C)CC2C1CC[C@]1(C)CCC3C(C(=O)O)CC(=O)O[C@@]32C1 (some centres undefined)", 1.02),
    ("CS(=O)(=O)c1ccc([C@@H](O)[C@@H](CO)NC(=O)C(Cl)Cl)cc1", 1.02),
    ("CN(C)CCCN1c2ccccc2Sc2ccccc21", 1.01),
    ("CN(C)CCCN1c2ccccc2CCc2ccc(Cl)cc21", 1.01),
    ("CC[N+](C)(C)c1cccc(O)c1", 1.02),
    ("CC(=O)Oc1ccc(/C=C/c2cc(OC(C)=O)cc(OC(C)=O)c2)cc1", 0.964),
    ("CC(C)CCCC(C)C1CCC2C3=CC[C@H]4C[C@@H](O)CC[C@]4(C)C3CC[C@@]21C (some centres undefined)", 0.98),
    ("O=C(O)c1cc(O)c2c(c1)[C@@H]([C@H]1c3cc(C(=O)O)cc(O)c3C(=O)c3c(O[C@H]4O[C@H](CO)[C@@H](O)[C@H](O)[C@H]4O)cccc31)c1cccc(O[C@H]3O[C@H](CO)[C@@H](O)[C@H](O)[C@H]3O)c1C2=O", 1.02),
    ("C=C1c2c(Cl)ccc(O)c2C(O)=C2C(=O)[C@]3(O)C(O)=C(C(N)=O)C(=O)[C@@H](N(C)C)[C@@H]3[C@@H](O)[C@H]12", 0.958),
    ("CCC(C)C(=O)OC1[C@@H]2CC3=C4CC(=O)O[C@@H](c5ccoc5)[C@]4(C)CCC3[C@@](C)(C2=O)[C@@H](CC(=O)OC)C1(C)C (some centres undefined)", 0.999),
    ("CN(C)CCCN1c2ccccc2Sc2ccc(C(F)(F)F)cc21", 1.03),
    ("CC(C)(C)NC[C@H](O)c1ccc(O)c(CO)c1", 1.01),
    ("COC1CC2CCC(C)C(O)(O2)C(=O)C(=O)N2CCCCC2C(=O)OC(C(C)CC2CCC(O)C(OC)C2)CC(=O)C(C)/C=C(\\C)C(O)C(OC)C(=O)C(C)CC(C)/C=C/C=C/C=C/1C (centres undefined)", 0.0917),
    ("C/C1=C/CC(C)(C)/C=C/C/C(C)=C/CC1", 0.979),
    ("CCCOc1ccc2nc(NC(=O)OC)[nH]c2c1", 1),
    ("C[C@H]1c2cccc(O)c2C(O)=C2C(=O)[C@]3(O)C(O)=C(C(N)=O)C(=O)[C@@H](N(C)C)[C@@H]3[C@@H](O)[C@@H]21", 0.969),
]
